Cited source for all entries: ChEMBL document CHEMBL1142710

target: Delta-type opioid receptor (Rattus norvegicus); assay: Binding affinity against Opioid receptor delta 1 from rat brain membranes using [3H]DADLE
Sequence (P33533 whole entry): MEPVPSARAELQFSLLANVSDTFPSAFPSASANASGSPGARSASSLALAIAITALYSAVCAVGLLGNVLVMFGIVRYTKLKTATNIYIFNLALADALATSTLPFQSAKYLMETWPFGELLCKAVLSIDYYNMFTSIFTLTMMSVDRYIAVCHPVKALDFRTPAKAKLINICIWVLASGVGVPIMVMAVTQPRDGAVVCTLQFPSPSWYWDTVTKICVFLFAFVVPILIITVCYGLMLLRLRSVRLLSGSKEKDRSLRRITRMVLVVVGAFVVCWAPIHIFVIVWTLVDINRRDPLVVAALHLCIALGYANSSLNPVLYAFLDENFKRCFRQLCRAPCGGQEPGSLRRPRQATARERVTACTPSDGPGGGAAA
Listed next: entries and their corresponding Ki.
The response must be a number in nM with no trailing unit.

- COMPOUND: "Oc1ccc2c3c1O[C@@H]1c4[nH]c5cc(-c6ccccc6)ccc5c4C[C@@]4(O)[C@@H](C2)N(CC2CC2)CC[C@]314"
  UNITS_OF_MEASURE: "nM"
  Ki: 18.2
- COMPOUND: "CCCCN1CC[C@]23c4c5ccc(O)c4O[C@@H]2c2[nH]c4ccccc4c2C[C@@]3(O)[C@H]1C5"
  UNITS_OF_MEASURE: "nM"
  Ki: 8.32
- COMPOUND: "C/C=C/CN1CC[C@]23c4c5ccc(O)c4O[C@@H]2c2[nH]c4ccccc4c2C(C)[C@H]3[C@H]1C5 (stereo partly specified)"
  UNITS_OF_MEASURE: "nM"
  Ki: 2.29
- COMPOUND: "Oc1cccc(-c2ccc3c4c2O[C@@H]2c5[nH]c6ccccc6c5C[C@@]5(O)[C@@H](C3)N(CC3CC3)CC[C@]425)c1"
  UNITS_OF_MEASURE: "nM"
  Ki: 1620
- COMPOUND: "CO[C@@]12CCC(=O)CC13CCN(CC1CC1)C2Cc1cccc(OC/C=C/c2ccccc2)c13 (stereo partly specified)"
  UNITS_OF_MEASURE: "nM"
  Ki: 832

### Prompt Look up Ki of Cc1cc(-c2ccccc2)c2c(n1)[C@@H]1Oc3c(O)ccc4c3C13CCN(CC1CC1)C(C4)[C@]3(O)C2 (stereo partly specified) and report it.
### Response 126

### Prompt Look up Ki of Oc1ccc2c3c1O[C@H]1c4ncc(-c5ccc(Cl)cc5)cc4C[C@@]4(O)C(C2)N(CC2CC2)CCC314 (stereo partly specified) and report it.
### Response 2.19

### Prompt Look up Ki of CCCCCCCN1CC[C@]23c4c5ccc(O)c4O[C@@H]2c2[nH]c4ccccc4c2C[C@@]3(O)[C@H]1C5 and report it.
### Response 79.4

### Prompt Look up Ki of O=C(Oc1cccc2[nH]c3c(c12)C[C@@]1(O)[C@H]2Cc4ccc(O)c5c4[C@@]1(CCN2CC1CC1)[C@@H]3O5)c1ccccc1 and report it.
### Response 14.8

### Prompt Look up Ki of Oc1ccc2c3c1O[C@H]1c4nccc(-c5ccccc5)c4C[C@@]4(O)C(C2)N(CC2CC2)CCC314 (stereo partly specified) and report it.
### Response 72.4

### Prompt Look up Ki of CN1CC[C@]23c4c5ccc(O)c4O[C@@H]2c2[nH]c4ccccc4c2C[C@H]3[C@H]1C5 and report it.
### Response 2.4

### Prompt Look up Ki of C=C(C)CN1CCC23c4c5ccc(O)c4O[C@H]2c2[nH]ncc2C[C@@]3(O)C1C5 (stereo partly specified) and report it.
### Response 39.8

### Prompt Look up Ki of CO[C@@]12CCC(=O)CC13CCN(CC1CC1)C2Cc1cccc(OCc2ccccc2)c13 (stereo partly specified) and report it.
### Response 214

### Prompt Look up Ki of CN1CCC23c4c5ccc(O)c4O[C@H]2c2ncc(-c4ccc(Cl)c(Cl)c4)cc2C[C@H]3C1C5 (stereo partly specified) and report it.
### Response 3.72

### Prompt Look up Ki of CCCCCN1CC[C@]23c4c5ccc(O)c4O[C@@H]2c2[nH]c4ccccc4c2C[C@@]3(O)[C@H]1C5 and report it.
### Response 15.8

### Prompt Look up Ki of C=C(C)CN1CCC23c4c5ccc(OC)c4O[C@H]2c2oc4ccccc4c2C[C@@]3(O)C1C5 (stereo partly specified) and report it.
### Response 43.7
